Target: UniProt:Q8N4C8
Sequence (Q8N4C8 whole entry, species assumed): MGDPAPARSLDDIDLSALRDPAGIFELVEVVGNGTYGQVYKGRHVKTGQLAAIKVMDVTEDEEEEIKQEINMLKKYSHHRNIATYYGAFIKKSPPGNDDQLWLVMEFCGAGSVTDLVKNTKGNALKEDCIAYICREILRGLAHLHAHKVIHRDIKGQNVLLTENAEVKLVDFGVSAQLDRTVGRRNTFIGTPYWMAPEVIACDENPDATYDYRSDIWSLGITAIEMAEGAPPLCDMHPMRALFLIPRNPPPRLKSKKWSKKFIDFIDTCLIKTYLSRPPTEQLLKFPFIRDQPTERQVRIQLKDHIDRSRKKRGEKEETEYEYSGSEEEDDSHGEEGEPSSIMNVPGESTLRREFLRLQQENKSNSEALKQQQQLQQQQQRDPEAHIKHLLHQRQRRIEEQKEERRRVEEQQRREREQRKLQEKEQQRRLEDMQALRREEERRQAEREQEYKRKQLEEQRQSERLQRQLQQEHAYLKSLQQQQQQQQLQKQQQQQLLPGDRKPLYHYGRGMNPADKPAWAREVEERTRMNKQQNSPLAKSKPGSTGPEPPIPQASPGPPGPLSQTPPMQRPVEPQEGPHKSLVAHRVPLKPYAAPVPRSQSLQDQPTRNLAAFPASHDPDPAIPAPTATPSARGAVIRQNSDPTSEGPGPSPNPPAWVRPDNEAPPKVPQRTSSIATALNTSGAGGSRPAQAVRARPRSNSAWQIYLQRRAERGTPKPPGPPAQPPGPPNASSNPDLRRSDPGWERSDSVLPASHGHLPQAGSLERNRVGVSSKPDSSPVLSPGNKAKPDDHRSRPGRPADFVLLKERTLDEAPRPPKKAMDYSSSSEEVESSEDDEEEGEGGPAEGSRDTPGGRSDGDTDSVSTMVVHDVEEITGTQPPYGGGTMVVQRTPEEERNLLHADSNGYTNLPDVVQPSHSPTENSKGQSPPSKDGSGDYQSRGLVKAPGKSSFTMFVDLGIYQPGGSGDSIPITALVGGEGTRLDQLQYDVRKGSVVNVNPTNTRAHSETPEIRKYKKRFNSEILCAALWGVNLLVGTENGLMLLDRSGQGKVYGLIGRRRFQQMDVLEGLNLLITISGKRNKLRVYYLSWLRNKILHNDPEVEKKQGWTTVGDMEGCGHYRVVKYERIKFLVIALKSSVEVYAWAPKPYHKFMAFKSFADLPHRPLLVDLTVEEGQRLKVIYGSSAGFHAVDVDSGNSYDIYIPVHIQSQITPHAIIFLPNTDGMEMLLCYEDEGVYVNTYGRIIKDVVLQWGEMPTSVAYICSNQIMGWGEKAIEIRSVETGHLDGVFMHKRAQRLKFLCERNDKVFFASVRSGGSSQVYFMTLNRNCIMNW
Assay: Kinase profiling MINK1
Format: biochemical
Conditions: 100 micromolar inhibitor concentration; 100 is no change
Property Measured: residual kinase activity, MINK1

Here is how some molecules turned out for residual kinase activity, MINK1.
>  <Molecule>
O=C(Nc1nc2ccc(O)cc2s1)c1ccncc1 [Compound 08-42]

>  <residual kinase activity, MINK1>
37

$$$$
>  <Molecule>
O=C(Nc1nc2cc(O)ccc2s1)c1ccccn1 [Compound 03-13]

>  <residual kinase activity, MINK1>
31

$$$$

Please find the next molecule below.
Given the molecule O=C(Nc1nc2ccc(O)cc2s1)c1ccccc1 [Compound 03-60] , what is its reported residual kinase activity, MINK1?
7
